Where these numbers come from: the CheMixHub viscosity set

experiment: xn = mol fraction of the nth substance listed; conditions: 298.15 K; 101 kPa; x2 = 0.35
assay.metric: viscosity (mPa·s)
Numeric only. Scale: mPa·s

| molecule | unit.symbol | viscosity |
| --- | --- | --- |
| CCCCCCCCO + CCCO | mPa·s | 5.141 |
| CCCCCCCCO + CO | mPa·s | 4.176 |

Problem: Complete the entry with viscosity for CCCCCCCCO + CCO
Solution: 4.546

Problem: Complete the entry with viscosity for CCCCCCCCO + CCCCO
Solution: 5.382

====

The reader will find reported viscosity values listed item by item below.
assay: xn = mol fraction of the nth substance listed; details: 318.15 K; 101 kPa; x2 = 0.4
Numeric only. Scale: mPa·s

Problem: Complete the entry with viscosity for CCCCCCCCO + CCO
Solution: 2.466

Problem: Complete the entry with viscosity for CCCCCCCCO + CCCCO
Solution: 2.855

Problem: Complete the entry with viscosity for CCCCCCCCO + CCCO
Solution: 2.713

Problem: Complete the entry with viscosity for CCCCCCCCO + CO
Solution: 2.296
